Biological target: Renin (Homo sapiens)
Assay: Inhibition of Human plasma renin
Type: cell-free
*1 amine or outer side, *2 acyl side, *3 side chain or, on linkers, in order; H or OH if unused. Where a SMILES comes first, the peptide text is derived from it. [ ]: non-standard residue; d: D form. The star is where a group is joined. X1 = O=C([C@H](Cc1ccccc1)OC[C@@H]1CCCN1[*:1])[*:2]; X2 = CC(CN[*:1])CC(N)C(O)CC(=O)[*:2]; NHCH2(2-pyridyl) = c1ccc(CN*)nc1; Boc = CC(C)(C)OC(=O)*; For = O=C*
Reported Endpoint: IC50 (µM)

compound="CC[C@H](C)[C@H](NC(=O)[C@@H](NCC(O)[C@H](CC(C)C)NC(=O)[C@H](Cc1c[nH]cn1)NC(=O)[C@H](Cc1ccccc1)OC[C@@H]1CCCN1C(=O)[C@H](Cc1ccccc1)NC(=O)OC(C)(C)C)C(C)C)C(=O)NCc1ccccn1 (stereo partly drawn)" target_desc="Renin (Homo sapiens)" number=1.6
compound="CC[C@H](C)[C@H](NC(=O)CC(O)C(N)CC(C)CNC(=O)[C@H](Cc1cnc[nH]1)NC(=O)[C@H](Cc1ccccc1)OC[C@@H]1CCCN1C(=O)OC(C)(C)C)C(=O)NCc1ccccn1 (stereo partly drawn)" target_desc="Renin (Homo sapiens)" number=140
compound="CC[C@H](C)[C@H](NC(=O)CC(O)C(N)CC(C)CNC(=O)[C@H](Cc1cnc[nH]1)NC(=O)[C@H](Cc1ccccc1)OC[C@@H]1CCCN1C(=O)[C@H](Cc1cn(C=O)c2ccccc12)NC(=O)OC(C)(C)C)C(=O)N[C@@H](Cc1ccccc1)C(=O)OC (stereo partly drawn) (Boc-W(For)[X1]H[X2]IF-OMe)" target_desc="Renin (Homo sapiens)" number=1000
compound="CC[C@H](C)[C@H](NC(=O)[C@@H](NCC(O)[C@H](CC(C)C)NC(=O)[C@H](Cc1c[nH]cn1)NC(=O)[C@H](Cc1ccccc1)OC[C@@H]1CCCN1C(=O)OC(C)(C)C)C(C)C)C(=O)NCc1ccccn1 (stereo partly drawn)" target_desc="Renin (Homo sapiens)" number=2.3
compound=CC[C@H](C)[C@H](NC(=O)[C@H](C)OC[C@H](CC(C)C)NC(=O)[C@H](Cc1cnc[nH]1)NC(=O)[C@H](Cc1ccccc1)NC(=O)[C@@H]1CCCN1C(=O)[C@H](Cc1cnc[nH]1)NC(=O)[C@@H]1CCCN1)C(=O)N[C@@H](Cc1cnc[nH]1)C(=O)N[C@H](CCCCN)C(=O)O target_desc="Renin (Homo sapiens)" number=18
compound="CC[C@H](C)[C@H](NC(=O)CC(O)C(N)CC(C)CNC(=O)[C@H](Cc1c[nH]cn1)NC(=O)[C@H](Cc1ccccc1)OC[C@@H]1CCCN1C(=O)[C@H](Cc1cn(C=O)c2ccccc12)NC(C)=O)C(=O)N[C@@H](Cc1ccccc1)C(=O)OC (stereo partly drawn) (Ac-W(For)[X1]H[X2]IF-OMe)" target_desc="Renin (Homo sapiens)" number=330
compound="CC[C@H](C)[C@H](NC(=O)CC(O)C(N)CC(C)CNC(=O)[C@H](Cc1cnc[nH]1)NC(=O)[C@H](Cc1ccccc1)NC(=O)[C@@H]1CCCN1C(=O)OC(C)(C)C)C(=O)NCc1ccccn1 (stereo partly drawn) (Boc-PFH[X2]I-{NHCH2(2-pyridyl)})" target_desc="Renin (Homo sapiens)" number=4.1
compound="CC[C@H](C)[C@H](NC(=O)CC(O)C(N)CC(C)CNC(=O)[C@H](Cc1c[nH]cn1)NC(=O)[C@H](Cc1ccccc1)OC[C@@H]1CCCN1C(=O)[C@H](Cc1c[nH]cn1)NC(=O)OC(C)(C)C)C(=O)NCc1ccccn1 (stereo partly drawn)" target_desc="Renin (Homo sapiens)" number=100

###

# IC50 values compiled below
Molecular target: Renin (Homo sapiens, UniProt P00797)
Sequence (P00797 whole entry): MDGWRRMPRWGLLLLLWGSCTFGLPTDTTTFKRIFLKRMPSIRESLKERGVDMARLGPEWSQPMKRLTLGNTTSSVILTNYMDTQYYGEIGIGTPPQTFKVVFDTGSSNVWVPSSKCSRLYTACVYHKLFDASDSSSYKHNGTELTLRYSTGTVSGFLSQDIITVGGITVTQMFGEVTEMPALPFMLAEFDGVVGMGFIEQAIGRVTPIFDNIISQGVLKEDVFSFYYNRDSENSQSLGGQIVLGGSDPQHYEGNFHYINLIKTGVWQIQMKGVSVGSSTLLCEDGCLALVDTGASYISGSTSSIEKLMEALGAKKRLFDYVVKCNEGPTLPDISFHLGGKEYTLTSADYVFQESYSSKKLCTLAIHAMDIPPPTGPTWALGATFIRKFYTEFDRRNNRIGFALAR
Assay: Inhibition of Human plasma renin
*1 amine or outer side, *2 acyl side, *3 side chain or, on linkers, in order; H or OH if unused. Where a SMILES comes first, the peptide text is derived from it. [ ]: non-standard residue; d: D form. The star is where a group is joined. X2 = CC(CN[*:1])CC(N)C(O)CC(=O)[*:2]; Boc = CC(C)(C)OC(=O)*
Reported Endpoint: IC50

molecule="CC[C@H](C)[C@H](NC(=O)CC(O)C(N)CC(C)CNC(=O)[C@H](Cc1c[nH]cn1)NC(=O)[C@H](Cc1ccccc1)NC(=O)[C@@H]1CCCN1C(=O)OC(C)(C)C)C(=O)N[C@@H](Cc1ccccc1)C(=O)OC (some centres undefined) (Boc-PFH[X2]IF-OMe)" result="5800 nM"
molecule=CC[C@H](C)[C@H](NC(=O)[C@H](CC(C)C)OC[C@H](CC(C)C)NC(=O)[C@H](Cc1cnc[nH]1)NC(=O)[C@H](Cc1ccccc1)NC(=O)[C@@H]1CCCN1C(=O)[C@H](Cc1cnc[nH]1)NC(=O)[C@@H]1CCCN1)C(=O)N[C@@H](Cc1cnc[nH]1)C(=O)N[C@H](CCCCN)C(=O)O result="1800 nM"
molecule=CC[C@H](C)[C@H](NC(=O)[C@@H](NC[C@H](CC(C)C)NC(=O)[C@H](Cc1c[nH]cn1)NC(=O)[C@H](Cc1ccccc1)NC(=O)[C@@H]1CCCN1C(=O)[C@H](Cc1c[nH]cn1)NC(=O)[C@@H]1CCCN1)C(C)C)C(=O)N[C@@H](Cc1c[nH]cn1)C(=O)N[C@H](CCCCN)C(=O)O result="50 nM"
molecule=CC[C@H](C)[C@H](NC(=O)[C@@H](OC[C@H](CC(C)C)NC(=O)[C@H](Cc1c[nH]cn1)NC(=O)[C@H](Cc1ccccc1)NC(=O)[C@@H]1CCCN1C(=O)[C@H](Cc1c[nH]cn1)NC(=O)[C@@H]1CCCN1)C(C)C)C(=O)N[C@@H](Cc1c[nH]cn1)C(=O)N[C@H](CCCCN)C(=O)O result="1700 nM"

###

Molecular target: Renin (Homo sapiens, UniProt P00797)
Assay: Inhibition of Human plasma renin
pIC50: −log10 of the molar value. *1 amine or outer side, *2 acyl side, *3 side chain or, on linkers, in order; H or OH if unused. Where a SMILES comes first, the peptide text is derived from it. [ ]: non-standard residue; d: D form. The star is where a group is joined. X1 = O=C([C@H](Cc1ccccc1)OC[C@@H]1CCCN1[*:1])[*:2]; X2 = CC(CN[*:1])CC(N)C(O)CC(=O)[*:2]; Boc = CC(C)(C)OC(=O)*
Reported Endpoint: pIC50

compound="CC[C@H](C)[C@H](NC(=O)[C@@H](NCC(O)[C@H](CC(C)C)NC(=O)[C@H](Cc1cnc[nH]1)NC(=O)[C@H](Cc1ccccc1)NC(=O)[C@@H]1CCCN1C(=O)OC(C)(C)C)C(C)C)C(=O)NCc1ccccn1 (stereo not given in full)" number=6.44
compound="CC(C)[C@H](NC(=O)[C@H](Cc1ccccc1)NC(=O)[C@H](Cc1ccccc1)NC(=O)[C@H](Cc1ccccc1)NC(=O)[C@H](Cc1c[nH]cn1)NC(=O)[C@H](Cc1ccccc1)NC(=O)[C@@H]1CCCN1C(=O)[C@H](Cc1c[nH]cn1)NC(=O)[C@@H]1CCCN1)C(=O)N[C@@H](Cc1ccc(O)cc1)C(=O)N[C@@H](CCCCN)C(=O)O [RIP] (H-PHPFHFFFVYK-OH)" number=5.15
compound="CC[C@H](C)[C@H](NC(=O)CC(O)C(N)CC(C)CNC(=O)[C@H](Cc1c[nH]cn1)NC(=O)[C@H](Cc1ccccc1)OC[C@@H]1CCCN1C(=O)[C@H](Cc1c[nH]cn1)NC(=O)OC(C)(C)C)C(=O)N[C@@H](Cc1ccccc1)C(=O)OC (stereo not given in full) (Boc-H[X1]H[X2]IF-OMe)" number=3.36
compound="CC[C@H](C)[C@H](NC(=O)CC(O)C(N)CC(C)CNC(=O)[C@H](Cc1cnc[nH]1)NC(=O)[C@H](Cc1ccccc1)OC[C@@H]1CCCN1C(=O)OC(C)(C)C)C(=O)N[C@@H](Cc1ccccc1)C(=O)OC (stereo not given in full)" number=2.60
compound="CC[C@H](C)[C@H](NC(=O)[C@@H](NCC(O)[C@H](CC(C)C)NC(=O)[C@H](Cc1cnc[nH]1)NC(=O)[C@H](Cc1ccccc1)OC[C@@H]1CCCN1C(=O)[C@H](Cc1cnc[nH]1)NC(=O)OC(C)(C)C)C(C)C)C(=O)NCc1ccccn1 (stereo not given in full)" number=5.52
